Test system: SNB-19 CNS
Assay: NCI tumour cell line growth inhibition, 48 h
Kindly state TGI for each of the entries shown.

Qu. Complete the entry with TGI for Cc1cc(NS(=O)(=O)c2ccc(Nc3c4ccccc4nc4c(C(=O)Nc5ccc(S(=O)(=O)N=C(N)N)cc5)ccc(Cl)c34)cc2)no1
Ans. > 100 µM

Qu. Complete the entry with TGI for Cn1c(=O)c2nc(NCCO)cnc2n(C)c1=O
Ans. > 100 µM

Qu. Complete the entry with TGI for COc1ccc(C#CC2=C(c3cc(OC)c(OC)c(OC)c3)C(=O)OC2)cc1
Ans. > 50 µM

###

Kindly state TGI for each of the entries shown.
Tested on: CAKI-1 renal
Assay: NCI tumour cell line growth inhibition, 48 h

Qu. Complete the entry with TGI for NC(C(=O)OC(=O)c1ccccc1)C(=O)OC(=O)c1ccccc1
Ans. > 100 µM

Qu. Complete the entry with TGI for O=S(=O)(NCCO)c1cc[c]([Sb](=[O])([OH])[OH])cc1
Ans. > 100 µM

Qu. Complete the entry with TGI for Nc1c2c(nc3ccccc13)CCCc1ccccc1-2
Ans. 40.9 µM

Qu. Complete the entry with TGI for C[C@]12CC[C@@H]3c4ccc(O)cc4CC[C@H]3[C@@H]1CC[C@@H]2NS(=O)(=O)c1ccc2ccccc2c1
Ans. 10.4 µM

Qu. Complete the entry with TGI for CN1CCN(c2ccc(C(=O)Nc3cccc(C#Cc4cccc5[nH]nc(N)c45)c3)cc2C(F)(F)F)CC1
Ans. 1.51 µM

Qu. Complete the entry with TGI for Nc1ccc(OCCCc2c(-c3ccccc3)nc(N)[nH]c2=O)cc1
Ans. > 100 µM

Qu. Complete the entry with TGI for Nc1[nH]c(=S)c2c(N)n[nH]c2c1C(=O)Nc1ccc(Cl)cc1
Ans. > 100 µM

Qu. Complete the entry with TGI for COc1ccc(N(C(=O)NCCO)c2ccccc2)cc1
Ans. > 100 µM

Qu. Complete the entry with TGI for NC(=O)C1CCCN1C(=O)N(CCCl)N=O (stereo not given)
Ans. > 100 µM

Qu. Complete the entry with TGI for CN(C)c1ccc(/C=N/NC(=O)c2cccc3ccccc23)c(Cl)c1
Ans. 8.04 µM

Qu. Complete the entry with TGI for Nc1ncnc2nn(C3OC(CO)C(O)C3O)nc12 (stereo not given)
Ans. > 100 µM

Qu. Complete the entry with TGI for CCOP(C)(=O)/C(Cc1ccc(OC)c(OC)c1)=N\O (stereo not given)
Ans. > 100 µM

Qu. Complete the entry with TGI for COCn1c(C)c(C)c2c(=O)oc(C)nc21
Ans. 45 µM

Qu. Complete the entry with TGI for C[N+](C)(C)C(C1=CCCC1=O)c1ccccc1 (stereo not given)
Ans. 63.9 µM

Qu. Complete the entry with TGI for CC(OC(=O)N(N(CCCl)S(C)(=O)=O)S(C)(=O)=O)c1ccc([N+](=O)[O-])cc1 (stereo not given)
Ans. > 100 µM

Qu. Complete the entry with TGI for COc1ccc(/C=C2\CN(C)CC3C2=NN(c2ccccc2)C3c2ccc(OC)cc2)cc1 (stereo not given)
Ans. > 100 µM

Qu. Complete the entry with TGI for CC(=O)OC(=C(C#N)C#N)c1nccnc1C(C)=O
Ans. > 20 µM

Qu. Complete the entry with TGI for Cc1nc2cccc([N+](=O)[O-])c2n1CCCN(C)C
Ans. > 100 µM

Qu. Complete the entry with TGI for Cn1c2ccccc2c2nnc(NNCc3ccccn3)nc21
Ans. 1.63 µM

Qu. Complete the entry with TGI for CCOC(=O)N1N(c2ccccc2)C(=O)C1(c1ccccc1)c1ccccc1
Ans. > 100 µM
